In this section, each of the compounds is paired with its reported IC50.
- Tested on: PANC-1
- Assay protocol: Antiproliferative activity against human PANC1 cells
- Format: functional, cell-based
Unit µM implied. Number only.

Compound | IC50 / µM
CCOC(=O)N1C(=O)N(OS(=O)(=O)c2ccc(C)cc2)C23CCCN2C(=O)c2cc(Br)c(Br)n2C13 (racemic) | 5

Field: next compound
# IC50 measured on PANC-1 for item O=C1NC2n3c(cc(Br)c3Br)C(=O)N3CCCC23N1 (racemic) = 4.06

---

- Assay protocol: Antiproliferative activity against human OVXF 1619L cells
- Type: functional, cell-based
Readout: pIC50
Bear in mind: pIC50 is minus log10 of a mol/L concentration; give just that figure.

Molecule | pIC50
CCOC(=O)N1C(=O)N(OS(=O)(=O)c2ccc(C)cc2)C23CCCN2C(=O)c2cc(Br)c(Br)n2C13 (racemic) | 5.32

The recorded pIC50 for entry O=C1NC2n3c(cc(Br)c3Br)C(=O)N3CCCC23N1 (racemic) equals 5.65

---

- Assay protocol: Antiproliferative activity against human MEXF 514NL cells
- Format: functional, cell-based
Readout: pIC50
Value format note: pIC50 is -log10 of concentration (mol/L); just state the number.

O=C1NC2n3c(cc(Br)c3Br)C(=O)N3CCCC23N1 (racemic) has a reported pIC50 of 5.36

---

Catalogue of IC50 values
- Test system: MCF7
- Assay protocol: Antiproliferative activity against human MCF7 cells
- Assay type: functional, cell-based

Molecule | IC50
CCOC(=O)N1C(=O)N(OS(=O)(=O)c2ccc(C)cc2)C23CCCN2C(=O)c2cc(Br)c(Br)n2C13 (racemic) | > 10 µM

Per the record, O=C1NC2n3c(cc(Br)c3Br)C(=O)N3CCCC23N1 (racemic) has IC50 of > 10 µM

---

- Assay protocol: Antiproliferative activity against human MAXF 401NL cells
- Type: functional, cell-based
Readout: IC50 (µM)
# output: bare number, implied unit µM

Consider CCOC(=O)N1C(=O)N(OS(=O)(=O)c2ccc(C)cc2)C23CCCN2C(=O)c2cc(Br)c(Br)n2C13 (racemic) . Its measured IC50 is 8.16

---

- Assay protocol: Antiproliferative activity against human UXF 1138L cells
- Assay type: functional, cell-based
Readout: pIC50
In simple prose, pIC50 is minus the logarithm base ten of a concentration in moles per litre.

Molecule | pIC50
O=C1NC2n3c(cc(Br)c3Br)C(=O)N3CCCC23N1 (racemic) | 5.92

We next turn to a different molecule, shown below.
Value of measured pIC50 for the entry CCOC(=O)N1C(=O)N(OS(=O)(=O)c2ccc(C)cc2)C23CCCN2C(=O)c2cc(Br)c(Br)n2C13 (racemic) : 5.05

---

- Assay protocol: Antiproliferative activity against human MEXF 462NL cells
- Format: functional, cell-based
Readout: IC50

Lab book: IC50 of CCOC(=O)N1C(=O)N(OS(=O)(=O)c2ccc(C)cc2)C23CCCN2C(=O)c2cc(Br)c(Br)n2C13 (racemic) noted as > 10 µM

Item: O=C1NC2n3c(cc(Br)c3Br)C(=O)N3CCCC23N1 (racemic) | IC50: > 10 µM

---

- Assay protocol: Antiproliferative activity against human PAXF 1675L cells
- Type: functional, cell-based
IC50: recorded values

Compound | IC50
O=C1NC2n3c(cc(Br)c3Br)C(=O)N3CCCC23N1 (racemic) | > 10 µM

Next up:
Entry under test: CCOC(=O)N1C(=O)N(OS(=O)(=O)c2ccc(C)cc2)C23CCCN2C(=O)c2cc(Br)c(Br)n2C13 (racemic) . Its IC50 was > 10 µM
